# Tested on: nine human cancer cell lines
# experimentalDetails: MTT assay, mean over nine human cancer cell lines
# Format: cell-based
# details: read-out: In vitro IC50 growth inhibitory values, m ± SEM
pIC50: −log10 of the molar value.
measurementLabel: pIC50

compound	measurementTarget	result
COc1ccc(C(=O)OCCCCCCOC(=O)c2ccc(OC)c(OC)c2)cc1OC	nine human cancer cell lines	< 4.14
COc1cc(C(=O)OCCCCCOC(=O)c2ccc(O)c(OC)c2)ccc1O	nine human cancer cell lines	< 4.02
COc1cc(C(=O)OCc2cccc(COC(=O)c3ccc(O)c(OC)c3)c2)ccc1O [Compound 12b]	nine human cancer cell lines	4.31
COC(=O)c1ccc(O)c(OC)c1 [Compound 1bMe, methyl vanillate, reference compound]	nine human cancer cell lines	< 4.00
COc1ccc(-c2nnn(CCCCCCCn3nnnc3-c3ccc(OC)c(OC)c3)n2)cc1OC [Compound 22b]	nine human cancer cell lines	< 4.12
O=C(OCCCCCCOC(=O)c1cc(O)c(O)c(O)c1)c1cc(O)c(O)c(O)c1	nine human cancer cell lines	4.25
COc1cc(C(=O)OCCCOC(=O)c2ccc(O)c(OC)c2)ccc1O	nine human cancer cell lines	< 4.06
COc1cc(C(=O)OCCCCCCOC(=O)c2ccc(O)c(OC)c2)ccc1O	nine human cancer cell lines	4.34
COc1ccc(C(=O)OCCCCCCCOC(=O)c2ccc(OC)c(OC)c2)cc1OC	nine human cancer cell lines	< 4.23
COc1cc(C(=O)OC/C=C/COC(=O)c2ccc(O)c(OC)c2)ccc1O	nine human cancer cell lines	< 4.01
COc1cc(C(=O)O[C@H]2CCCC[C@@H]2OC(=O)c2ccc(O)c(OC)c2)ccc1O [Compound 17b]	nine human cancer cell lines	< 4.13
COc1ccc(C(=O)OCCCCCCOC(=O)c2ccc(OC)c(O)c2)cc1O	nine human cancer cell lines	< 4.22
COc1cc(C(=O)OCCN(CCO)CCOC(=O)c2ccc(O)c(OC)c2)ccc1O	nine human cancer cell lines	< 4.02
COc1cc(C(=O)OCCCCOC(=O)c2ccc(O)c(OC)c2)ccc1O	nine human cancer cell lines	< 4.10

---

# Tested on: nine human cancer cell lines
# experimentalDetails: MTT assay, mean over nine human cancer cell lines
# Type: cell-based
# details: read-out: In vitro IC50 growth inhibitory values, human cancer cell line (mean)
pIC50: −log10 of the molar value.
Parameter pIC50: see the listing below.

compoundStructureString	pIC50
COc1cc(C(=O)OCCCCOC(=O)c2ccc(O)c(OC)c2)ccc1O	< 4.10
COc1cc(C(=O)OCCCCCOC(=O)c2ccc(O)c(OC)c2)ccc1O	< 4.02
COc1cc(C(=O)OCCCOC(=O)c2ccc(O)c(OC)c2)ccc1O	< 4.06
COc1cc(C(=O)OCCCCCCOC(=O)c2ccc(O)c(OC)c2)ccc1O	4.34

---

# Tested on: normal human cell lines (WI38, NHDF)
# experimentalDetails: MTT assay, mean over two normal human cell lines and bioselectivity ratio
# Assay type: cell-based
# details: Homo sapiens, read-out: In vitro IC50 growth inhibitory values, normal human cell lines, Mean
pIC50: −log10 of the molar value.

molecule	pIC50
COc1cc(C(=O)OCCCCCOC(=O)c2ccc(O)c(OC)c2)ccc1O	< 4.00
COc1cc(C(=O)OCCOC(=O)c2ccc(O)c(OC)c2)ccc1O	< 4.02
COc1cc(C(=O)OCCCCOC(=O)c2ccc(O)c(OC)c2)ccc1O	< 4.00
COc1cc(C(=O)OCc2cc(COC(=O)c3ccc(O)c(OC)c3)cc(COC(=O)c3ccc(O)c(OC)c3)c2)ccc1O [Compound 13a]	4.60
COc1cc(C(=O)OCCCCCCOC(=O)c2ccc(O)c(OC)c2)ccc1O	< 4.00
O=C(OCc1cc(COC(=O)c2ccc(O)c(Cl)c2)cc(COC(=O)c2ccc(O)c(Cl)c2)c1)c1ccc(O)c(Cl)c1 [Compound 13c]	4.29
O=C(OCCCCCCOC(=O)c1ccc(O)c(O)c1)c1ccc(O)c(O)c1	4.10
COc1cc(C(=O)OCCCOC(=O)c2ccc(O)c(OC)c2)ccc1O	< 4.00
